# Test system: DU-145
# Experiment notes: Cytotoxicity against human DU-145 cells overexpressing RAD51 assessed as cell viability at 50 uM incubated for 72 hrs by MTT assay relative to control
# Assay type: functional
# Condition: read-out: Activity
Field: viability at 50 µM. Provide a value for each of the molecules that follow.

Q: What viability at 50 µM value was documented for this molecule, "N#Cc1ccc(/C=C/c2ccc([N+](=O)[O-])cc2S(=O)(=O)O)c(S(=O)(=O)O)c1" ?
Result: 88%

Q: What viability at 50 µM value was documented for this molecule, "COc1ccc(C(=O)Nc2ccc(/C=C/c3ccc(NC(=O)c4ccc(OC)cc4)cc3S(=O)(=O)O)c(S(=O)(=O)O)c2)cc1" ?
Result: 100%

Q: What viability at 50 µM value was documented for this molecule, "Cc1ccc(S(=O)(=O)Nc2ccc(/C=C/c3ccc(NS(=O)(=O)c4ccc(C)cc4)cc3S(=O)(=O)O)c(S(=O)(=O)O)c2)cc1" ?
Result: 100%

Q: What viability at 50 µM value was documented for this molecule, "O=S(=O)(O)c1cc(N=C=S)ccc1/C=C/c1ccc(N=C=S)cc1S(=O)(=O)O" ?
Result: 83%

Q: What viability at 50 µM value was documented for this molecule, "[N-]=[N+]=Nc1ccc(/C=C/c2ccc(N=[N+]=[N-])cc2S(=O)(=O)O)c(S(=O)(=O)O)c1" ?
Result: 93%

Q: What viability at 50 µM value was documented for this molecule, "O=C(Nc1ccc(/C=C/c2ccc(NC(=O)c3ccccc3)cc2S(=O)(=O)O)c(S(=O)(=O)O)c1)c1ccccc1" ?
Result: 100%

Q: What viability at 50 µM value was documented for this molecule, "O=c1c2ccccc2nc(/C=C/c2cccnc2)n1Cc1ccccc1" ?
Result: 9%

Q: What viability at 50 µM value was documented for this molecule, "O=S(=O)(O)c1cc(I)ccc1/C=C/c1ccc(I)cc1S(=O)(=O)O" ?
Result: 84%

Q: What viability at 50 µM value was documented for this molecule, "O=C(Nc1ccc(/C=C/c2ccc(NC(=O)Oc3ccccc3)cc2S(=O)(=O)O)c(S(=O)(=O)O)c1)Oc1ccccc1" ?
Result: 87%

Q: What viability at 50 µM value was documented for this molecule, "N#Cc1ccc(/C=C/c2ccc(C#N)cc2S(=O)(=O)O)c(S(=O)(=O)O)c1" ?
Result: 100%

---

# Test system: UniProt Q06609
# Experiment notes: Inhibition of RAD51 (unknown origin) using labeled 100-ss DNA as substrate assessed as reduction in DNA D-loop formation by [gamma-32P]ATP based scintillation counter method
Field: log10 of IC50. Provide a value for each of the compounds that follow.
Heads up: the numbers are on a log10 scale; they represent IC50 in µM.

Q: GET /values?readout=log10 of IC50&system=UniProt Q06609&item= "CC(=O)Nc1ccc(/C=C/c2ccc(N=C=S)cc2S(=O)(=O)O)c(S(=O)(=O)O)c1"
Result: 1.46

Q: GET /values?readout=log10 of IC50&system=UniProt Q06609&item= "N#Cc1ccc(/C=C/c2ccc(C#N)cc2S(=O)(=O)O)c(S(=O)(=O)O)c1"
Result: 0.69

Q: GET /values?readout=log10 of IC50&system=UniProt Q06609&item= "O=C(Nc1ccc(/C=C/c2ccc(NC(=O)Oc3ccccc3)cc2S(=O)(=O)O)c(S(=O)(=O)O)c1)Oc1ccccc1"
Result: 0.36

Q: GET /values?readout=log10 of IC50&system=UniProt Q06609&item= "O=C(Nc1ccc(CCc2ccc(NC(=O)Oc3ccccc3)cc2S(=O)(=O)O)c(S(=O)(=O)O)c1)Oc1ccccc1"
Result: 1.48

Q: GET /values?readout=log10 of IC50&system=UniProt Q06609&item= "O=S(=O)(O)c1cc(N=C=S)ccc1/C=C/c1ccc(N=C=S)cc1S(=O)(=O)O"
Result: -0.05

Q: GET /values?readout=log10 of IC50&system=UniProt Q06609&item= "N#Cc1ccc(/C=C/c2ccc([N+](=O)[O-])cc2S(=O)(=O)O)c(S(=O)(=O)O)c1"
Result: 1.30

Q: GET /values?readout=log10 of IC50&system=UniProt Q06609&item= "O=C(Nc1ccc(/C=C/c2ccc(NC(=O)Oc3ccccc3)cc2)cc1)Oc1ccccc1"
Result: 1.48

Q: GET /values?readout=log10 of IC50&system=UniProt Q06609&item= "[N-]=[N+]=Nc1ccc(/C=C/c2ccc(N=[N+]=[N-])cc2S(=O)(=O)O)c(S(=O)(=O)O)c1"
Result: 1.33

Q: GET /values?readout=log10 of IC50&system=UniProt Q06609&item= "COc1ccc(C(=O)Nc2ccc(/C=C/c3ccc(NC(=O)c4ccc(OC)cc4)cc3S(=O)(=O)O)c(S(=O)(=O)O)c2)cc1"
Result: 0.81

---

# Test system: DNA repair protein RAD51 homolog 1 (Homo sapiens, UniProt Q06609)
# Experiment notes: Inhibition of RAD51 (unknown origin) mediated homologous recombination
Measure: IC50
Phrase the answer as number then unit, nothing more needed.

Q: What IC50 value was documented for this compound, "O=C1C(Cl)=C(N2CCOCC2)C(=O)N1c1ccc(Cl)c(Cl)c1" ?
Result: 20 µM

---

# Test system: DNA repair protein RAD51 homolog 1 (Homo sapiens, UniProt Q06609)
# Sequence (Q06609 whole entry): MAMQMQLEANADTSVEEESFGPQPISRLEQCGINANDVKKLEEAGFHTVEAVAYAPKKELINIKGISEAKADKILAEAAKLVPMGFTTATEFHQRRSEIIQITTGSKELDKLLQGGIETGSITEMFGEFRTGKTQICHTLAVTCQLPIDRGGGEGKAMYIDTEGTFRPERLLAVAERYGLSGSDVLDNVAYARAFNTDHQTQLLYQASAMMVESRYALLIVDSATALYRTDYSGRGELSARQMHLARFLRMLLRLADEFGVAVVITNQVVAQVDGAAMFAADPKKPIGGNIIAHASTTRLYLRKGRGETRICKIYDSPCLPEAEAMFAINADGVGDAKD
# Experiment notes: Inhibition of RAD51 (unknown origin) assessed as reduction in novel 58/33-dsDNA formation incubated for 1 hr by electrophoresis based DNA strand exchange assay
Field: pIC50. Provide a value for each of the compounds that follow.
# log scale: pIC50 equals minus log10 of the concentration in mol/L

Q: What pIC50 value was documented for this compound, "N#Cc1ccc(/C=C/c2ccc(C#N)cc2S(=O)(=O)O)c(S(=O)(=O)O)c1" ?
Result: 5.89

Q: What pIC50 value was documented for this compound, "COc1ccc(C(=O)Nc2ccc(/C=C/c3ccc(NC(=O)c4ccc(OC)cc4)cc3S(=O)(=O)O)c(S(=O)(=O)O)c2)cc1" ?
Result: 5.52

Q: What pIC50 value was documented for this compound, "O=S(=O)(O)c1cc(I)ccc1/C=C/c1ccc(I)cc1S(=O)(=O)O" ?
Result: 4.76

Q: What pIC50 value was documented for this compound, "[N-]=[N+]=Nc1ccc(/C=C/c2ccc(N=[N+]=[N-])cc2S(=O)(=O)O)c(S(=O)(=O)O)c1" ?
Result: 5.00

Q: What pIC50 value was documented for this compound, "O=C(Nc1ccc(/C=C/c2ccc(NC(=O)Oc3ccccc3)cc2S(=O)(=O)O)c(S(=O)(=O)O)c1)Oc1ccccc1" ?
Result: 5.42

Q: What pIC50 value was documented for this compound, "O=S(=O)(O)c1cc(N=C=S)ccc1/C=C/c1ccc(N=C=S)cc1S(=O)(=O)O" ?
Result: 6.12

// data source = ChEMBL document CHEMBL5257068
